- Tested on: MCF7 breast
- protocol: NCI tumour cell line growth inhibition, 48 h
Respond with Satisfied for TGI values of 60 µM and above, Not satisfied for values below.

Request: Is TGI for Clc1ccc(CSCc2ccc(Cl)cc2Cl)c(Cl)c1 at or above 60 µM?
Response: Satisfied

Request: Does the compound Nc1nn(C(=O)Nc2ccc(Cc3ccccc3)cc2)c2ccccc12 have recorded TGI that is 60 µM or more?
Response: Not satisfied

Request: Evaluate Cn1c(=O)c2c(nc3sc4ncccc4c(=O)n32)n(C)c1=O : TGI at minimum 60 µM?
Response: Satisfied

Request: Evaluate COc1ccc(N=C2C(=Nc3ccc(OC)cc3)N(c3ccccc3[N+](=O)[O-])C(=S)N2c2ccc(OC)cc2)cc1 : TGI at minimum 60 µM?
Response: Satisfied

Request: Determine whether this compound has TGI no lower than 60 µM: O=C1C=CC(=O)N1CCCCCCCCCCN1C(=O)C=CC1=O
Response: Not satisfied

Request: Determine whether measured TGI meets or exceeds 60 µM for CC(C)[C@H](NC(=O)[C@@H](O)[C@H](N)Cc1ccccc1)C(=O)N[C@@H](Cc1ccccc1)C(=O)O
Response: Satisfied

Request: Form field: TGI at least 60 µM? Entry: CC(=O)/C=C/c1ccc(N(C)Cc2ccc(C(C)(C)C)cc2)cc1
Response: Satisfied

Request: Hi, just wondering whether CN(C)CC1CN(C(=O)Nc2ccccc2)C(=N)O1 (stereo not given) shows TGI of 60 µM or higher.
Response: Satisfied

Request: Does TGI meet or surpass 60 µM for O=C(CN1C(=O)c2ccccc2C1=O)OCC1CCCN2CCCCC12 (stereo not given) ?
Response: Satisfied
